Each entry below carries its recorded viability, T/C.
# System: 282377-053-R-J1-PDC complex spheroid viability
# PROTOCOL_DESCRIPTION: Anticancer human tumor 282377-053-R-J1-PDC patient-derived colon adenocarcinoma cell line growth inhibition [POLQ]
# RECORDED_CONDITIONS: second compound 0.0316 µM; first compound 0.316 µM; active compounds read low
VALUE_TYPE: viability, T/C (%)

• CC1COCCN1c1cc(-c2ccnn2C)c2ccnc(-c3ccn[nH]3)c2n1 (stereo not drawn) + Cc1cccc(N(C)C(=O)C2C(O)CCN2c2nc(C)cc(C(F)(F)F)c2C#N)c1 = 52.6
• CCc1cc2c(N3CCc4c(cc(Cn5ccnc5)cc4-c4cn(C)nc4C(F)(F)F)C3=O)ccnc2c(OC)n1 + COC1C(OC(N)=O)C(O)C(Oc2ccc3c(O)c(NC(=O)c4ccc(O)c(CC=C(C)C)c4)c(=O)oc3c2C)OC1(C)C = 139
• COc1cc(C2c3cc4c(cc3C(OC3OC5COC(C)OC5C(O)C3O)C3COC(=O)C23)OCO4)cc(OC)c1O (stereo not drawn) + COC1C(OC(N)=O)C(O)C(Oc2ccc3c(O)c(NC(=O)c4ccc(O)c(CC=C(C)C)c4)c(=O)oc3c2C)OC1(C)C = 97.1
• CC1COCCN1c1cc(C2(O)CC3CCC(C2)O3)c2cnn(-c3ccn[nH]3)c2n1 (stereo not drawn) + Cc1cccc(N(C)C(=O)C2C(O)CCN2c2nc(C)cc(C(F)(F)F)c2C#N)c1 = 67.9
• C#Cc1c(F)ccc2cc(O)cc(-c3ncc4c(N5CC6CCC(C5)N6)nc(OCC56CCCN5CC(F)C6)nc4c3F)c12 (stereo not drawn) + COC1C(OC(N)=O)C(O)C(Oc2ccc3c(O)c(NC(=O)c4ccc(O)c(CC=C(C)C)c4)c(=O)oc3c2C)OC1(C)C = 108
• C=CCn1c(=O)c2cnc(Nc3ccc(N4CCN(C)CC4)cc3)nc2n1-c1cccc(C(C)(C)O)n1 + Cc1cccc(N(C)C(=O)C2C(O)CCN2c2nc(C)cc(C(F)(F)F)c2C#N)c1 = 93.6
• O=C(Nc1ccc(O)c(NS(=O)(=O)c2ccc(F)cc2)c1)c1ccc(-c2ccccc2)cc1 + COC1C(OC(N)=O)C(O)C(Oc2ccc3c(O)c(NC(=O)c4ccc(O)c(CC=C(C)C)c4)c(=O)oc3c2C)OC1(C)C = 109
• CC1COCCN1c1cc(C2(S(C)(=N)=O)CC2)nc(-c2ccnc3[nH]ccc23)n1 (stereo not drawn) + Nc1ccc(C#CCN(C(=O)Cc2ncc(C(F)(F)F)cc2C(F)(F)F)c2ccc(F)cc2)nn1 = 90.7
• O=C(Nc1ccc(O)c(NS(=O)(=O)c2ccc(F)cc2)c1)c1ccc(-c2ccccc2)cc1 + Nc1ccc(C#CCN(C(=O)Cc2ncc(C(F)(F)F)cc2C(F)(F)F)c2ccc(F)cc2)nn1 = 98.1
• CC1COCCN1c1cc(C2(S(C)(=N)=O)CC2)nc(-c2ccnc3[nH]ccc23)n1 (stereo not drawn) + COC1C(OC(N)=O)C(O)C(Oc2ccc3c(O)c(NC(=O)c4ccc(O)c(CC=C(C)C)c4)c(=O)oc3c2C)OC1(C)C = 110
• COc1ccc([C@@H](O)c2cc(-c3ncnc4cc(N5CCOCC5)ccc34)c(F)cc2Cl)nn1 + COC1C(OC(N)=O)C(O)C(Oc2ccc3c(O)c(NC(=O)c4ccc(O)c(CC=C(C)C)c4)c(=O)oc3c2C)OC1(C)C = 104
• CCc1cc2c(N3CCc4c(cc(Cn5ccnc5)cc4-c4cn(C)nc4C(F)(F)F)C3=O)ccnc2c(OC)n1 + Nc1ccc(C#CCN(C(=O)Cc2ncc(C(F)(F)F)cc2C(F)(F)F)c2ccc(F)cc2)nn1 = 102
• CC1COCCN1c1cc(C2(S(C)(=N)=O)CC2)nc(-c2ccnc3[nH]ccc23)n1 (stereo not drawn) + Cc1cccc(N(C)C(=O)C2C(O)CCN2c2nc(C)cc(C(F)(F)F)c2C#N)c1 = 108
• CC(C)n1c(=O)n(C)c2cnc3cc(F)c(-c4ccc(OCCCN5CCCCC5)nc4)cc3c21 + Nc1ccc(C#CCN(C(=O)Cc2ncc(C(F)(F)F)cc2C(F)(F)F)c2ccc(F)cc2)nn1 = 107
• COc1cc2cc(C(=O)CCC(=O)O)sc2cc1OC + Nc1ccc(C#CCN(C(=O)Cc2ncc(C(F)(F)F)cc2C(F)(F)F)c2ccc(F)cc2)nn1 = 115
• CCCS(=O)(=O)Nc1ccc(F)c(C(=O)c2c[nH]c3ncc(-c4ccc(Cl)cc4)cc23)c1F + Nc1ccc(C#CCN(C(=O)Cc2ncc(C(F)(F)F)cc2C(F)(F)F)c2ccc(F)cc2)nn1 = 71.1
• CCCS(=O)(=O)Nc1ccc(F)c(C(=O)c2c[nH]c3ncc(-c4ccc(Cl)cc4)cc23)c1F + COC1C(OC(N)=O)C(O)C(Oc2ccc3c(O)c(NC(=O)c4ccc(O)c(CC=C(C)C)c4)c(=O)oc3c2C)OC1(C)C = 81.1
• CCc1c2c(nc3ccc(O)cc13)-c1cc3c(c(=O)n1C2)COC(=O)[C@]3(O)CC + Nc1ccc(C#CCN(C(=O)Cc2ncc(C(F)(F)F)cc2C(F)(F)F)c2ccc(F)cc2)nn1 = 69.9

* * *

Each entry below carries its recorded viability, T/C.
# Test system: 282377-053-R-J1-PDC complex spheroid viability
# PROTOCOL_DESCRIPTION: Anticancer human tumor 282377-053-R-J1-PDC cell line growth inhibition [POLQ];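 note: spheroids exposed to compounds for seven days; 100% = DMSO vehicle control viability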
# RECORDED_CONDITIONS: second compound 1 µM; first compound 3.16 µM; active compounds read low
VALUE_TYPE: viability, T/C

• O=C(Nc1ccc(O)c(NS(=O)(=O)c2ccc(F)cc2)c1)c1ccc(-c2ccccc2)cc1 + Cc1cccc(N(C)C(=O)C2C(O)CCN2c2nc(C)cc(C(F)(F)F)c2C#N)c1 = 117%
• C=CC(=O)N1CCN(c2nc(=O)n(-c3c(C)ccnc3C(C)C)c3nc(-c4c(O)cccc4F)c(F)cc23)C(C)C1 (stereo unspecified) + Cc1cccc(N(C)C(=O)C2C(O)CCN2c2nc(C)cc(C(F)(F)F)c2C#N)c1 = 85.7%
• O=c1[nH]cc(F)c(=O)[nH]1 + Cc1cccc(N(C)C(=O)C2C(O)CCN2c2nc(C)cc(C(F)(F)F)c2C#N)c1 = 82.7%
• O=C(Nc1ccc(O)c(NS(=O)(=O)c2ccc(F)cc2)c1)c1ccc(-c2ccccc2)cc1 + COC1C(OC(N)=O)C(O)C(Oc2ccc3c(O)c(NC(=O)c4ccc(O)c(CC=C(C)C)c4)c(=O)oc3c2C)OC1(C)C = 120%
• Nc1ccn(C2OC(CO)C(O)C2(F)F)c(=O)n1 (stereo unspecified) + Cc1cccc(N(C)C(=O)C2C(O)CCN2c2nc(C)cc(C(F)(F)F)c2C#N)c1 = 21.7%
• O=c1[nH]cc(F)c(=O)[nH]1 + COC1C(OC(N)=O)C(O)C(Oc2ccc3c(O)c(NC(=O)c4ccc(O)c(CC=C(C)C)c4)c(=O)oc3c2C)OC1(C)C = 79.6%
• COc1cccc2c1C(=O)c1c(O)c3c(c(O)c1C2=O)CC(O)(C(=O)CO)CC3OC1CC(N)C(O)C(C)O1 (stereo unspecified) + Cc1cccc(N(C)C(=O)C2C(O)CCN2c2nc(C)cc(C(F)(F)F)c2C#N)c1 = 2.19%
• CC1COCCN1c1cc(C2(S(C)(=N)=O)CC2)nc(-c2ccnc3[nH]ccc23)n1 (stereo unspecified) + COC1C(OC(N)=O)C(O)C(Oc2ccc3c(O)c(NC(=O)c4ccc(O)c(CC=C(C)C)c4)c(=O)oc3c2C)OC1(C)C = 79.5%
• COc1cccc2c1C(=O)c1c(O)c3c(c(O)c1C2=O)CC(O)(C(=O)CO)CC3OC1CC(N)C(O)C(C)O1 (stereo unspecified) + Nc1ccc(C#CCN(C(=O)Cc2ncc(C(F)(F)F)cc2C(F)(F)F)c2ccc(F)cc2)nn1 = 10.8%
• CC1COCCN1c1cc(C2(O)CC3CCC(C2)O3)c2cnn(-c3ccn[nH]3)c2n1 (stereo unspecified) + Cc1cccc(N(C)C(=O)C2C(O)CCN2c2nc(C)cc(C(F)(F)F)c2C#N)c1 = 27%
• CC1COCCN1c1cc(C2(O)CC3CCC(C2)O3)c2cnn(-c3ccn[nH]3)c2n1 (stereo unspecified) + COC1C(OC(N)=O)C(O)C(Oc2ccc3c(O)c(NC(=O)c4ccc(O)c(CC=C(C)C)c4)c(=O)oc3c2C)OC1(C)C = 28.4%

* * *

Each entry below carries its recorded viability, T/C.
# Tested on: 282377-053-R-J1-PDC complex spheroid viability
# PROTOCOL_DESCRIPTION: Anticancer human tumor 282377-053-R-J1-PDC cell line growth inhibition [POLQ];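 note: spheroids exposed to compounds for seven days; 100% = DMSO vehicle control viability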
# RECORDED_CONDITIONS: second compound 0.316 µM; first compound 0.0316 µM; active compounds read low
VALUE_TYPE: viability, T/C (%)

• CC1COCCN1c1cc(C2(S(C)(=N)=O)CC2)nc(-c2ccnc3[nH]ccc23)n1 (stereo not drawn) + Cc1cccc(N(C)C(=O)C2C(O)CCN2c2nc(C)cc(C(F)(F)F)c2C#N)c1 = 91.3
• C=CCn1c(=O)c2cnc(Nc3ccc(N4CCN(C)CC4)cc3)nc2n1-c1cccc(C(C)(C)O)n1 + Nc1ccc(C#CCN(C(=O)Cc2ncc(C(F)(F)F)cc2C(F)(F)F)c2ccc(F)cc2)nn1 = 99.2
• COc1cc2cc(C(=O)CCC(=O)O)sc2cc1OC + COC1C(OC(N)=O)C(O)C(Oc2ccc3c(O)c(NC(=O)c4ccc(O)c(CC=C(C)C)c4)c(=O)oc3c2C)OC1(C)C = 121
